EC50 values, listed per item
Target: mouse RORγ (Mus musculus)
Construct: mouse, NM_011281.2 and from Ile251 to Lys516; expressed in transfected cells; host or cells: CHO cells (transient co-transfection with pG5-Luc reporter)
Sequence (P51450 251-516): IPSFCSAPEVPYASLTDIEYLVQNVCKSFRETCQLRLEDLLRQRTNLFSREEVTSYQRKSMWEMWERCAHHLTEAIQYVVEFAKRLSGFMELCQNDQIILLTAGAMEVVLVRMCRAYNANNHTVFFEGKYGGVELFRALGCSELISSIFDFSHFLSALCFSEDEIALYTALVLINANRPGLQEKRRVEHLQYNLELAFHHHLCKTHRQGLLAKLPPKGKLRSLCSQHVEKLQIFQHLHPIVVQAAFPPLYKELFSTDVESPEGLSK
Assay: Luciferase reporter gene assay of inhibitory effect against RORγ transcriptional activity (GAL4-mRORγ plasmid in CHO cells)
Assay type: cell-based
Details: read-out: LUC EC50 (μM) mRORg
Observable: EC50

- Molecule: "CCc1cccc(NC(=O)CCc2nnc(CCC(C)C)n2C2CC2)c1C"
  Observable: "EC50"
  Meas value: "< 3 µM"
- Molecule: "CCn1c(CCC(=O)Nc2ccc(C)cc2C)nnc1CCC(C)C"
  Observable: "EC50"
  Meas value: "> 3 µM"
- Molecule: "Cc1c(NC(=O)CCc2nnc(CCC(C)C)n2C2CC2)cccc1C1CC1"
  Observable: "EC50"
  Meas value: "< 3 µM"
- Molecule: "CC1(c2cc(-c3onc([C@@H](CCC(=O)O)CC(=O)Nc4ccc(F)cc4Cl)c3C3CC3)no2)CCCC1"
  Observable: "EC50"
  Meas value: "< 3 µM"
- Molecule: "Cc1ccc(NC(=O)CC(CCC(=O)O)c2nnc(CCCC(C)C)n2C2CC2)c(C)c1 (racemic)"
  Observable: "EC50"
  Meas value: "> 3 µM"
- Molecule: "Cc1c(Cl)cccc1NC(=O)CCc1nnc(CCC2CCCN(C)C2)n1C1CC1 (racemic)"
  Observable: "EC50"
  Meas value: "> 3 µM"
- Molecule: "C=CCC(CC(=O)Nc1ccc(C)cc1C)c1nnc(CCCC(C)(C)C)n1CC(F)(F)F (racemic)"
  Observable: "EC50"
  Meas value: "< 3 µM"
- Molecule: "Cc1ccc(NC(=O)CCc2nnc(CCC(C)C)n2C2CC2)c(C)c1"
  Observable: "EC50"
  Meas value: "> 3 µM"
- Molecule: "Cc1ccc(C#N)cc1NC(=O)CCc1nnc(CCC(C)C)n1C1CC1"
  Observable: "EC50"
  Meas value: "> 3 µM"
- Molecule: "Cc1ccccc1CNC(=O)CCc1nnc(CCC(C)C)n1C1CC1"
  Observable: "EC50"
  Meas value: "> 3 µM"
- Molecule: "Cc1ccc(NC(=O)CCc2nnc(-c3ccc(C(C)C)cc3)n2C2CC2)c(C)c1"
  Observable: "EC50"
  Meas value: "< 3 µM"
- Molecule: "Cc1ccc(NC(=O)C[C@@H](CCO)c2nnc([C@H]3C[C@@H](CC(C)C)C3)n2C2CC2)c(C)c1"
  Observable: "EC50"
  Meas value: "> 3 µM"
- Molecule: "COc1cc(C)ccc1CNC(=O)[C@H]1CCN(C(C)=O)[C@@H]1c1nnc(CCC2CCCCC2)n1C1CC1"
  Observable: "EC50"
  Meas value: "< 3 µM"
- Molecule: "C=CCC(CC(=O)Nc1cccc(Cl)c1C)c1nnc(CCC2CCCCC2)n1C1CC1 (racemic)"
  Observable: "EC50"
  Meas value: "< 3 µM"
- Molecule: "C=CCC(CC(=O)Nc1ccc(C)cc1C)c1nnc(C(F)(F)CCC(C)(C)C)n1C1CC1 (racemic)"
  Observable: "EC50"
  Meas value: "< 3 µM"
- Molecule: "CC(=O)N1C[C@@H](C(=O)Nc2ccc(C)cc2C)[C@H](c2nnc(-c3ccc(CC(C)C)cc3)n2C2CC2)C1"
  Observable: "EC50"
  Meas value: "> 3 µM"

* * *

Target: human RORγ (Homo sapiens, UniProt P51449)
Construct: human, NM_005060.3 and from Ser253 to Lys518; expressed in transfected cells; host or cells: CHO cells (transient co-transfection with pG5-Luc reporter)
Sequence (P51449 253-518): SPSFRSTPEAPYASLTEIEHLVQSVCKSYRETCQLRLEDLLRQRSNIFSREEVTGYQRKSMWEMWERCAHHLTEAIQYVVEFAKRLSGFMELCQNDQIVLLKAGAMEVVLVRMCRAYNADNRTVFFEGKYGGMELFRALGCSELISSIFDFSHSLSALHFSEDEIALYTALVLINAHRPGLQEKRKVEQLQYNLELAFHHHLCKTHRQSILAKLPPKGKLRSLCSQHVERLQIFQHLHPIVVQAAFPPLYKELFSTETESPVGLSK
Experiment: Luciferase reporter gene assay of inhibitory effect against RORγ transcriptional activity (GAL4-hRORγ plasmid in CHO cells)
Format: cell-based
Conditions: read-out: LUC EC50 (μM) hRORg
Reported EC50 is given for each of the following compounds.

- Compound: "Cc1ccc(NC(=O)CCc2nnc([C@H]3C[C@@H](CC(C)(C)C)C3)n2C2CC2)c(C)c1 [Example F-426]"
  EC50: "< 3 µM"
- Compound: "Cc1ccc(NC(=O)CCc2nnc([C@H]3C[C@@H](CCC(C)C)C3)n2C2CC2)c(C)c1 [Example F-444]"
  EC50: "< 3 µM"
- Compound: "Cc1ccc(NC(=O)[C@H]2C[C@@H](O)C[C@@H]2c2nnc([C@H]3C[C@@H](CC(C)C)C3)n2C2CC2)c(C)c1 (racemic) [Example F-431]"
  EC50: "< 3 µM"
- Compound: "Cc1ccc(NC(=O)CC(CCN(C)C)c2nnc(CCCC(C)C)n2C2CC2)c(C)c1 (racemic) [Example F-276]"
  EC50: "> 3 µM"
- Compound: "CCn1c(C2Cc3ccccc3C2)nnc1[C@H]1C[C@@H]1C(=O)Nc1cccc2ccccc12 (racemic) [Example F-26]"
  EC50: "> 3 µM"
- Compound: "CC(=O)N1C[C@H](C(=O)Nc2ccc(C)cc2C)[C@@H](c2nnc(C3CC3CC(C)C)n2C2CC2)C1 (mixture of isomers) [Example F-341]"
  EC50: "< 3 µM"
- Compound: "Cc1ccc(NC(=O)CC(CCCO)c2nnc(CCCC(C)C)n2C2CC2)c(C)c1 (racemic) [Example F-214]"
  EC50: "< 3 µM"
- Compound: "Cc1c(Cl)cccc1NC(=O)CCc1nnc(CCCC(C)(C)C)n1C1CC1 [Example F-181]"
  EC50: "< 3 µM"
- Compound: "COc1cc(C)ccc1CNC(=O)[C@H]1CCN(C(C)=O)[C@@H]1c1nnc(CCC2CCCCC2)n1C1CC1 [Example F-228]"
  EC50: "< 3 µM"
- Compound: "Cc1ccc(NC(=O)CCc2nnc(C3(O)CC(CC(C)C)C3)n2C2CC2)c(C)c1 (single isomer, unassigned) [Example F-430]"
  EC50: "< 3 µM"
- Compound: "CCOC(=O)CO[C@@H](CC(=O)Nc1ccc(C)cc1C)c1nnc([C@H]2C[C@@H](CC(C)C)C2)n1C1CC1 [Example F-433]"
  EC50: "< 3 µM"
- Compound: "Cc1ccc(NC(=O)C[C@H](CCC(=O)O)c2noc(-c3ncc(CC(C)C)o3)c2C2CC2)c(Cl)c1 [Example E-18]"
  EC50: "< 3 µM"
- Compound: "Cc1cccc(CNC(=O)CCc2nnc(CCC(C)C)n2C2CC2)c1C [Example F-118]"
  EC50: "> 3 µM"
- Compound: "Cc1c(Cl)cccc1NC(=O)CCc1nnc(CC[C@H]2CC[C@H](C(=O)N(C)C)CC2)n1C1CC1 [Example F-258]"
  EC50: "> 3 µM"
- Compound: "Cc1ccc(NC(=O)[C@@H]2C[C@H](O)C[C@H]2c2nnc([C@H]3C[C@@H](CC(C)C)C3)n2C2CC2)c(C)c1 [Example F-471]"
  EC50: "> 3 µM"
- Compound: "Cc1c(Cl)cccc1NC(=O)CCc1nnc(CCC(C)(C)C(=O)O)n1C1CC1 [Example F-226]"
  EC50: "> 3 µM"
- Compound: "C=CCC(CC(=O)Nc1ccc(C)cc1C)c1nnc(CCCC(C)(C)C)n1CC(F)(F)F (racemic) [Example F-373]"
  EC50: "< 3 µM"
- Compound: "Cc1ccc(C#N)cc1NC(=O)CCc1nnc(CCC(C)C)n1C1CC1 [Example F-143]"
  EC50: "> 3 µM"
- Compound: "CNC(=O)C(C)(C)CCCc1nnc(CCC(=O)Nc2cccc(Cl)c2C)n1C1CC1 [Example F-237]"
  EC50: "> 3 µM"
- Compound: "Cc1ccc(NC(=O)C[C@H](CCC(=O)O)c2noc(-c3cc(CCC(C)(C)C)on3)c2C2CC2)c(C)c1 [Example E-32]"
  EC50: "< 3 µM"
- Compound: "COc1cc(F)ccc1CNC(=O)CCc1nnc(CCC(C)C)n1C1CC1 [Example F-229]"
  EC50: "> 3 µM"
- Compound: "Cc1c(Cl)cccc1NC(=O)CCc1nnc(CC[C@H]2CC[C@H](C(F)(F)F)CC2)n1C1CC1 [Example F-250]"
  EC50: "> 3 µM"
- Compound: "Cc1ccc(NC(=O)C[C@H](CCC(=O)O)c2noc(-c3ncc(CC(C)C)s3)c2C2CC2)c(Cl)c1 [Example E-15]"
  EC50: "< 3 µM"
- Compound: "CCn1c(CCC(=O)Nc2cc(C)cc(C)c2)nnc1CCC(C)C [Example F-50]"
  EC50: "> 3 µM"
- Compound: "CCC(CC)C[C@H]1C[C@H](c2nnc(CCC(=O)Nc3ccc(C)cc3C)n2C2CC2)C1 [Example F-495]"
  EC50: "< 3 µM"
- Compound: "CC(=O)N1C[C@@H](C(=O)Nc2ccc(C)cc2C)[C@H](c2nnc(-c3ccc(C(C)C)cc3)n2C2CC2)C1 [Example F-372]"
  EC50: "> 3 µM"
- Compound: "CCCC(CC(=O)Nc1cccc(Cl)c1C)c1nnc(CCC(C)C)n1C1CC1 (racemic) [Example F-194]"
  EC50: "< 3 µM"
- Compound: "Cc1c(Cl)cccc1NC(=O)CCc1nnc(CCN2CCCCC2=O)n1C1CC1 [Example F-187]"
  EC50: "> 3 µM"
- Compound: "CC(=O)N1C[C@H](C(=O)Nc2ccc(C)cc2C)[C@@H](c2nnc(C(O)CCC(C)(C)C)n2C2CC2)C1 (single isomer, unassigned) [Example F-348]"
  EC50: "> 3 µM"
